assay.info: Cytotoxic concentration (CC50), MTS
Type: cell-based
measurement.context: African green monkey, Vero cells
Lab note - cut at 70 µM for CC50 at 48 h: True if strictly below, False if not.

Recorded results for 6 compounds are shown here.
- compound: "CCC/C=C/C/C=C/CCCCCCCc1cccc(O)c1C(=O)O"
  group.label: "False"
- compound: "C=CC/C=C/C/C=C/CCCCCCCc1cccc(O)c1C(=O)O"
  group.label: "False"
- compound: "CCCCCCCCCCCCCCCc1cccc(O)c1C(=O)O"
  group.label: "True"
- compound: "CCCCCCCCCCCCCCCc1cc(O)cc(O)c1"
  group.label: "True"
- compound: "CCCCCC/C=C\\CCCCCCCc1cccc(O)c1C(=O)O [Anacardic acid monoene, 6-[8(Z)-pentadecenyl]salicylic acid]"
  group.label: "False"
- compound: "CCCCCCCCCCCCCCCc1cccc(O)c1"
  group.label: "True"

Please find the next compound below.
Record C=CC/C=C/C/C=C/CCCCCCCc1cc(O)cc(O)c1 : is its CC50 at 48 h strictly below 70 µM?
False
